experiment: Nrf2 qHTS screen for inhibitors; further: nearly all actives have a fitted effect of over 60% in size
condition details: A549 ARE-Fluc reporter, luciferase luminescence, 18-24 h; series mostly up to 46 µM
Hit rate of the full screen: of about 360,000 compounds, about 7,500 (2.1%) were called active. Roughly 20% stayed inconclusive and do not appear here. The call rests on the fitted dose curve; in most records, active means well fitted inhibition curve with a large enough effect; inconclusive means small, poorly fitted or top-dose-only effect, or effect the other way; inactive means flat fitted curve, though single readings scatter. This is one part of a sample in which actives are shown more often than they occur.
Bench note: report the call from T for active, F for inactive

COc1ccc(S(=O)(=O)Nc2cccc3c2O[C@H](CN(C)S(=O)(=O)c2ccc(OC)cc2)[C@@H](C)CN([C@H](C)CO)C3=O)cc1	F

**Query** Returns: the outcome recorded for `O=C(CC(=O)c1cccnc1)c1ccccc1` in this assay.
**Result** F

**Query** Returns: the outcome recorded for `COc1ccccc1NC(=O)c1oc2ccccc2c1NC(=O)C(C)C` in this assay.
**Result** F

**Query** Returns: the outcome recorded for `COc1ccccc1CNC(=O)CCCCn1c(=O)c2ccccc2n(CC(=O)Nc2cc(Cl)ccc2C)c1=O` in this assay.
**Result** F

**Query** Returns: the outcome recorded for `COc1ccc2[nH]c3c(C)c4cc[n+](C)cc4c(C)c3c2c1` in this assay.
**Result** T

* * *

experiment: Nrf2 qHTS screen for inhibitors; further: nearly all actives have a fitted effect of over 60% in size
condition details: A549 ARE-Fluc reporter, luciferase luminescence, 18-24 h; series mostly up to 46 µM
In all, about 360,000 compounds went through this assay and about 7,500 (2.1%) were called active. Roughly 20% stayed inconclusive and do not appear here. Calls come from the whole dose curve; as a rule, active = well fitted inhibition curve with a large enough effect; inconclusive = small, poorly fitted or top-dose-only effect, or effect the other way; inactive = flat fitted curve, though single readings scatter. For the sample, actives were picked, then their nearest neighbours and some compounds at random.
Bench note: report the call from y = active, n = inactive

Look over these answered cases.
CC(C)OC(=O)c1ccc(NCc2cc(O)ccc2O)cc1Cl	n
Cc1cc(OCC(=O)NCC2(N(C)C)CCCCC2)cc(C)c1Cl	n
CCCCN(C(=O)c1cccc(N2C(=O)c3ccccc3C2=O)c1)c1c(N)n(CCCC)c(=O)[nH]c1=O	n
NC(=O)C1(Nc2ccc([N+](=O)[O-])cc2)CCCC1	n
Cc1ccccc1C(=O)N(Cc1ccc(N(C)C)cc1)CC1CCCO1 (configuration not stated)	n

**Query** Returns: the outcome recorded for `COc1ccccc1C(=O)OCc1cc(=O)n2nc(-c3cccs3)sc2n1` in this assay.
**Result** n

**Query** Returns: the outcome recorded for `CCCCn1c(SCC(=O)N2CCC(C(=O)OCC)CC2)nc2cc(S(N)(=O)=O)ccc21` in this assay.
**Result** n

**Query** Returns: the outcome recorded for O=C(NC(c1ccco1)c1cc(Cl)c2cccnc2c1O)c1ccccc1 (configuration not stated) in this assay.
**Result** n

* * *

experiment: Nrf2 qHTS screen for inhibitors; further: nearly all actives have a fitted effect of over 60% in size
condition details: A549 ARE-Fluc reporter, luciferase luminescence, 18-24 h; series mostly up to 46 µM
Among all 360,000 compounds or so, about 7,500 (2.1%) were called active. Not shown: some 20% with an inconclusive outcome. Calls follow the shape of the dose curve; as a rule, active = well fitted inhibition curve with a large enough effect; inconclusive = small, poorly fitted or top-dose-only effect, or effect the other way; inactive = flat fitted curve, though single readings scatter. This excerpt belongs to a sample that is enriched for actives.
Bench note: report the call from class 1 for active, class 0 for inactive

Cc1ccccc1-c1cc(C(=O)NCC2CC2)n(CC2CC(c3cccnc3)=NO2)n1 (centres undefined)	class 0
O=C1OCC2=C1C(c1ccc(Cl)cc1)c1cc3c(cc1O2)OCO3 (centres undefined)	class 0
COc1ccc2c(c1)CCc1c(C(=O)Nc3cc(C)ccc3O)noc1-2	class 0
CC1CC(C)CN(c2oc(-c3ccc(OCc4ccc(Cl)cc4)cc3)nc2C#N)C1 (centres undefined)	class 0
Cc1ccccc1-c1cc(C(=O)NCc2cccs2)n(CC2CC(c3cccnc3)=NO2)n1 (centres undefined)	class 1
O=C1NC[C@@H](c2ccccc2)OC(=O)[C@H](Cc2ccc(F)cc2)CC/C=C/C[C@H]1CC(=O)N(CCO)Cc1ccccc1	class 0
Cc1c(NC(=O)Cc2ccccc2)cccc1-c1nc2cccnc2s1	class 0
Cc1cccc(NC(=O)CSc2nc(-c3ccco3)cc(C(F)(F)F)n2)c1C	class 0
CCOC(=O)C1=C(CN2CCc3ccccc32)NC(=O)NC1c1ccc(Cl)cc1 (centres undefined)	class 1
COc1ccc(-c2nc3ccccc3s2)cc1NC(=O)COc1ccccc1C	class 0

**Query** Returns: the outcome recorded for `Cc1nc2c(-c3ccccc3)c(C)[nH]n2c(=O)c1Cl` in this assay.
**Result** class 1

**Query** Returns: the outcome recorded for `CC1CCN(C(=O)c2ccc3c(c2)NC(=O)CN3)CC1` in this assay.
**Result** class 0

**Query** Returns: the outcome recorded for `COc1ccc(C(=O)Nc2c(Cl)cc(Cl)cc2C(=O)N2CCC(C)CC2)cc1` in this assay.
**Result** class 0

**Query** Returns: the outcome recorded for `O=C(O)CC/C(=N\NC(=O)c1ccc(F)cc1)c1ccc(Br)cc1` in this assay.
**Result** class 0

**Query** Returns: the outcome recorded for `Cc1cc([N+](=O)[O-])c(=O)[nH]c1C` in this assay.
**Result** class 0

**Query** Returns: the outcome recorded for `COCc1cc(=O)n2[nH]c(C)c(-c3ccccc3)c2n1` in this assay.
**Result** class 0

**Query** Returns: the outcome recorded for `CCOc1cc(N2CCOCC2)c(OCC)cc1NC(=O)COc1cccc(Cl)c1` in this assay.
**Result** class 0

**Query** Returns: the outcome recorded for `O=S(=O)(Nc1ccc2ccccc2c1)N1CCCCC1` in this assay.
**Result** class 0

**Query** Returns: the outcome recorded for `CC1=Nc2cc(C(=O)N3CCC(C)CC3)ccc2Sc2ccc(Cl)cc21` in this assay.
**Result** class 1

**Query** Returns: the outcome recorded for `Cc1ccc(NC(=O)CSc2cccc3cccnc23)c(C)c1` in this assay.
**Result** class 0

**Query** Returns: the outcome recorded for `C=CC[n+]1c(-c2ccc(C)cc2)csc1NNC(=O)Nc1ccccc1` in this assay.
**Result** class 1

**Query** Returns: the outcome recorded for `Cc1cc(=O)n2[nH]c(-c3cccc(Cl)c3)cc2n1` in this assay.
**Result** class 0

**Query** Returns: the outcome recorded for `CC(C)c1cc(N=O)cc(C(C)C)c1O` in this assay.
**Result** class 0

**Query** Returns: the outcome recorded for `COc1ccc(NC(=O)CNC(=O)Cc2ccccc2)cc1OC` in this assay.
**Result** class 0

**Query** Returns: the outcome recorded for COc1ccc(NC(=O)NC(C)c2c(-n3cccc3)sc(C)c2C)cc1OC (centres undefined) in this assay.
**Result** class 1

**Query** Returns: the outcome recorded for `Cc1ccccc1-n1c(=O)c2ccccc2n(Cc2ccc(F)cc2)c1=O` in this assay.
**Result** class 0

**Query** Returns: the outcome recorded for `CC1(C)CCc2cc(S(=O)(=O)N3CCN(c4nc(-c5cccs5)nc5ccccc45)CC3)ccc2O1` in this assay.
**Result** class 0

**Query** Returns: the outcome recorded for `COc1ccccc1S(=O)(=O)NCc1ccc(C(=O)N(C)Cc2ccc(F)cc2)cc1` in this assay.
**Result** class 1

* * *

experiment: Nrf2 qHTS screen for inhibitors; further: nearly all actives have a fitted effect of over 60% in size
condition details: A549 ARE-Fluc reporter, luciferase luminescence, 18-24 h; series mostly up to 46 µM
Protocol: NIH Molecular Libraries Probe Production Network [MLPCN] NIH Chemical Genomics Center [NCGC] Assay Provider: Shyam Biswal, Johns Hopkins University […] This is the Nrf2 activity measured in the luminescent read. […] A concentration-response assay was performed with A549 ARE_Fluc cells which are suspended in 5% FBS OPTI-MEM. […] Afterwards another ViewLux read is performed using the clear filter to get a luminescent read with the settings of 40 second exposure, 2x binning, and high gain. […]
The campaign covered roughly 360,000 compounds. About 7,500 (2.1%) were called active. Roughly 20% stayed inconclusive and do not appear here. Calls come from the whole dose curve; as a rule, active = well fitted inhibition curve with a large enough effect; inconclusive = small, poorly fitted or top-dose-only effect, or effect the other way; inactive = flat fitted curve, though single readings scatter. This excerpt belongs to a sample that is enriched for actives.
Bench note: report the call from 1 = active, 0 = inactive

Look over these answered cases.
COc1ccc(S(=O)(=O)N2CCCCC2)cc1NC(=O)COc1ccccc1	0
O=C(NCCc1ccco1)c1ccc(OCc2cn3ccccc3n2)cc1	0
CC(C)(C)OC(=O)C[C@@H]1C/C=C\C[C@H](CC(=O)N[C@@H](CO)Cc2ccccc2)C(=O)N[C@H](Cc2ccccc2)COC1=O	0
CCC1(C)Cc2c(sc3[nH]c(=S)n(Cc4ccccc4)c(=O)c23)CO1 (stereo not given)	1
O=C(O)C1CCCN(S(=O)(=O)c2cccc3cccnc23)C1 (stereo not given)	0

**Query** Returns: the outcome recorded for `Cn1c(=O)c2c(nc(NCCc3ccccc3)n2Cc2ccccc2)n(C)c1=O` in this assay.
**Result** 1

**Query** Returns: the outcome recorded for COCCOC(=O)c1[nH]c2c(c1C)C(=O)CC(c1ccc(OC)cc1)C2 (stereo not given) in this assay.
**Result** 0

**Query** Returns: the outcome recorded for `Cc1ccc(S(=O)(=O)c2cc3c(=O)n4cccc(C)c4nc3n(CCc3ccccc3)c2=N)cc1C` in this assay.
**Result** 0

**Query** Returns: the outcome recorded for CCC1(C)Cc2c(sc3nc(SC)[nH]c(=O)c23)CO1 (stereo not given) in this assay.
**Result** 0

**Query** Returns: the outcome recorded for `COc1ccc2c(c1)c(N1CCCC1=O)c(C(=O)Nc1ccc(OC)c(Cl)c1)n2C` in this assay.
**Result** 0

Every entry's value here was drawn from PubChem BioAssay AID504444.
